Quick reference for half-life among some molecules
- measurement_protocol: clinical
- reported_conditions: human, in vivo, Terminal half-life
Answer format: numeric, h implied, no suffix.

Lookup: Bench note: what half-life did `Nc1ccc(O)c(C(=O)O)c1` show?
Found: 9.5

Attention now shifts to the item below.
Lookup: What half-life value was documented for this molecule, O=C(O)CCNC(=O)c1ccc(/N=N/c2ccc(O)c(C(=O)O)c2)cc1 [balsalazide] ?
Found: 1.9

----------
- measurement_protocol: clinical
- reported_conditions: human, in vivo, AUCtau, mean
- Excerpt: Before further description and in order that the invention may be more readily understood, certain terms are first defined and collected here for convenience. […]
assay_readout: AUC

Lookup: Data request, read-out AUC, for O=C(O)CCNC(=O)c1ccc(/N=N/c2ccc(O)c(C(=O)O)c2)cc1 [balsalazide]
Found: 1300 ng·h/mL

----------
// AUC(0-inf) lookup, one value per entry
- measurement_protocol: clinical
- reported_conditions: human, in vivo
I only need the number, in ng·h/mL, no unit after it.

Lookup: # AUC(0-inf) lookup, item O=C(O)CCNC(=O)c1ccc(/N=N/c2ccc(O)c(C(=O)O)c2)cc1 [balsalazide]
Found: 1400

Consider the additional compound presented here.
Lookup: What does the record list as AUC(0-inf) for Nc1ccc(O)c(C(=O)O)c1 [5-ASA, 5-aminosalicylic acid] ?
Found: 8500

----------
- measurement_protocol: clinical
- reported_conditions: human, in vivo, Cmax, mean
- From the text: Before further description and in order that the invention may be more readily understood, certain terms are first defined and collected here for convenience. […]
assay_readout: Cmax (ng/mL)
Numbers only; they are read as ng/mL.

Lookup: Can you look up the measured Cmax of O=C(O)CCNC(=O)c1ccc(/N=N/c2ccc(O)c(C(=O)O)c2)cc1 [balsalazide] for me?
Found: 300

----------
- measurement_protocol: clinical
- reported_conditions: human, in vivo, po, 3.3 g, Median Tmax
assay_readout: Tmax (h)
Kindly provide the numeric value in h only, without the unit symbol.

Lookup: Tmax for Nc1ccc(O)c(C(=O)O)c1 [5-ASA, 5-aminosalicylic acid] ?
Found: 12

----------
- measurement_protocol: Food effect on pharmacokinetics, single 3.3 g dose of GIAZO
- reported_conditions: human, plasma, po, 3.3 g, Median Tmax, with a high fat meal, single dose 3.3 g GIAZO
assay_readout: Tmax (h)
Give a bare numeral; the unit h is implied.

Lookup: Request the reported Tmax associated with O=C(O)CCNC(=O)c1ccc(/N=N/c2ccc(O)c(C(=O)O)c2)cc1 [balsalazide]
Found: 2

----------
- measurement_protocol: Food effect on pharmacokinetics, single 3.3 g dose of GIAZO
- reported_conditions: human, plasma, po, 3.3 g, Median Tmax, fasted, single dose 3.3 g GIAZO
assay_readout: Tmax (min)
Please state the figure in min; there is no need to write the unit.

Lookup: Dear colleague, I am looking for the recorded Tmax of the following compound: O=C(O)CCNC(=O)c1ccc(/N=N/c2ccc(O)c(C(=O)O)c2)cc1 [balsalazide]
Found: 30
